test system: SF-268; assay: NCI tumour cell line growth inhibition, 48 h
Calls of active or inactive are those of the source. Cut-off read from the data, not from the text of the source: active = GI50 up to about 1.1 µM and inactive = higher.
Form entry, call: pick from active, inactive

Data request: Short answer needed: outcome of this test for CO[C@@]12[C@H](COC(N)=O)C3=C(C(=O)C(C)=C(N)C3=O)N1C[C@H]1[C@@H]2N1C (some centres undefined) [PORFIROMYCIN] ?
Data returned: inactive

Data request: Short answer needed: outcome of this test for CC(=O)O[C@@H]1C2=C(C3=C([O-])C4=CC=CC(=O)C4C(=O)C3=C2[N+]#N)[C@H](OC(C)=O)[C@@H](OC(C)=O)[C@]1(C)O (some centres undefined) ?
Data returned: active

Data request: Short answer needed: outcome of this test for Cc1cc(=O)oc2cc(OCCCOc3ccc4c(C)cc(=O)oc4c3)ccc12 ?
Data returned: inactive

Data request: Short answer needed: outcome of this test for COc1ccc2c(c1)c(CC(=O)O)c(C)n2C(=O)c1ccc(Cl)cc1 ?
Data returned: inactive

Data request: Short answer needed: outcome of this test for O=C(CC(C(=O)c1ccsc1)c1ccc2c(c1)OCO2)c1ccccc1 (centres undefined) ?
Data returned: inactive

Data request: Short answer needed: outcome of this test for OC1(c2cccs2)c2cccc(Cl)c2C(O)(c2cccs2)c2c(Cl)cccc21 (centres undefined) ?
Data returned: inactive

Data request: Short answer needed: outcome of this test for COc1ccc(C2=NN(c3nsc4ccccc34)C(=O)CC2)cc1 ?
Data returned: inactive

Data request: Short answer needed: outcome of this test for CSc1nc2c(N)ncnc2n1C ?
Data returned: inactive

Data request: Short answer needed: outcome of this test for c1ccc(Nc2nnc(CSc3nc(-c4ccccc4)c(-c4ccccc4)[nH]3)s2)cc1 ?
Data returned: inactive
